Assay Overview: in vitro
Settings: rat, liver microsomes
Recorded Metric: remaining at 0.25 h, 1 µM (%)
Answers are plain numbers, in %.

Any idea what its remaining at 0.25 h, 1 µM is? The compound is `CS(=O)(=O)N1CCN(Cc2cn3cc(-c4cnc(N)nc4)nc(N4CCOCC4)c3n2)CC1`
99

###

Assay Overview: in vitro
Settings: human, liver microsomes
Recorded Metric: remaining at 0.25 h, 1 µM
Give your result as the value with the unit written after it.

Which remaining at 0.25 h, 1 µM reading was recorded for the molecule `CS(=O)(=O)N1CCN(Cc2cn3cc(-c4cnc(N)nc4)nc(N4CCOCC4)c3n2)CC1` ?
93%
